# Tested on: CNDT 2.5 cells
# measurement.protocol: Cell proliferation assay (MTT/MTS)
# Format: cell-based, human
# setup.conditions: Homo sapiens; CNDT 2.5, by 48 hrs; read-out: IC50, decrease in cell number
pIC50: −log10 of the molar value.
endpoint.name: pIC50

Challenge: // returns reported pIC50 for input CC(=O)c1c(O)c(C)c(O)c(Cc2c(O)c3c(c(C(=O)/C=C/c4ccccc4)c2O)OC(C)(C)C=C3)c1O [rottlerin]
Response given: ~5.30

---

# Test system: H727 cells
# measurement.protocol: Cell proliferation assay (MTT/MTS)
# Type: cell-based, human
# setup.conditions: Homo sapiens, NCI-H727; H727, by 48 hrs; read-out: IC50, decrease in cell number
endpoint.name: IC50

Challenge: // returns reported IC50 for input CC(=O)c1c(O)c(C)c(O)c(Cc2c(O)c3c(c(C(=O)/C=C/c4ccccc4)c2O)OC(C)(C)C=C3)c1O [rottlerin]
Response given: ~5 µM

---

# assayed.target: PKC alpha (Homo sapiens, UniProt P17252)
pIC50: −log10 of the molar value.
endpoint.name: pIC50

Challenge: // returns reported pIC50 for input CC(=O)c1c(O)c(C)c(O)c(Cc2c(O)c3c(c(C(=O)/C=C/c4ccccc4)c2O)OC(C)(C)C=C3)c1O
Response given: < 4.30

Reference source for all entries: patent US9844534B2
